study-system: Poly [ADP-ribose] polymerase 1 (Homo sapiens)
assay-method-text: Inhibition of PARP1 (unknown origin) by colorimetric analysis
measured-metric: IC50 (nM)
Record the value in nM, omitting the unit from your answer.

Endpoint output: IC50 of `O=C(CCn1nc(-c2ccccc2)c2ccccc2c1=O)Nc1cccc(Cl)c1` . Value?
97

====

study-system: Poly [ADP-ribose] polymerase 1 (Homo sapiens, UniProt P09874)
Sequence (P09874 whole entry): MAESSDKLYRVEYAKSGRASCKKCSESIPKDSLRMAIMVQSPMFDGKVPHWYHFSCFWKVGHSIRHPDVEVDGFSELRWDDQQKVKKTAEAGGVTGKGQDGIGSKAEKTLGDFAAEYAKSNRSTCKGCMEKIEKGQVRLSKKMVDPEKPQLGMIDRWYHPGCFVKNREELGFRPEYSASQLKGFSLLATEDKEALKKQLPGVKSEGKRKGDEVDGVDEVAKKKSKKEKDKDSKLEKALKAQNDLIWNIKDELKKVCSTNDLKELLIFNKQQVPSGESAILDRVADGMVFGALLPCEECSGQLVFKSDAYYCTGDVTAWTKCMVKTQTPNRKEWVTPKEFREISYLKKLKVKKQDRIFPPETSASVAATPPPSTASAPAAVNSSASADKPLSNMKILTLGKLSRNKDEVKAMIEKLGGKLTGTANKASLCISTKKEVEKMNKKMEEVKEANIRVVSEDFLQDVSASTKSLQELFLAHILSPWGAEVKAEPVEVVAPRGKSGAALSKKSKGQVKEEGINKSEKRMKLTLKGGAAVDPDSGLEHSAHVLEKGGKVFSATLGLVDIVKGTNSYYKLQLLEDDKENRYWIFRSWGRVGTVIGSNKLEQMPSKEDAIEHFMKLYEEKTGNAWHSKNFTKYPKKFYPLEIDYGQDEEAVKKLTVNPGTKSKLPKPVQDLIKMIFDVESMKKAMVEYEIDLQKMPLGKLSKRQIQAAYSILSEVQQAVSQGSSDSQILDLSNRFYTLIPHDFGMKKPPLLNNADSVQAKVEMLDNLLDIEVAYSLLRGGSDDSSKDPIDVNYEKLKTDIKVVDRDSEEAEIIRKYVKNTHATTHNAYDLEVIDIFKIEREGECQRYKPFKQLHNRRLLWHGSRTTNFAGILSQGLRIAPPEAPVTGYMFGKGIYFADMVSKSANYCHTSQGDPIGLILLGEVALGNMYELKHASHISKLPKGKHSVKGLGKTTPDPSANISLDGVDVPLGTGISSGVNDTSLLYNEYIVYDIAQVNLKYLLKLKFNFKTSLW
assay-method-text: Inhibition of PARP1 (unknown origin)
Could you please report measured pIC50 for the items listed next?
Please treat pIC50 as minus the base-10 logarithm of the molar concentration.

Endpoint output: pIC50 of `CN(C)CC/C=C1\c2ccccc2COc2ccc(CC(=O)NN)cc21` . Value?
7.10

Endpoint output: pIC50 of `NC(=O)c1cccc2[nH]c(CN3CCC(C(=O)Nc4cc5ccccc5cn4)CC3)nc12` . Value?
8.00

Endpoint output: pIC50 of `Cc1cccc2c1CCNC2=O` . Value?
6.38
